Provenance of the data: patent US20250073206A1

Test: Approximate solubility by visual observation at 25° C.
Format: physicochemical
Details: organic solvent or mixture, thermodynamic from solid, Methanol
Description: About 5 mg of batch 1 was weighed into a 2 mL glass vial and aliquots of 20 μL of each solvent were added to get a clear solution. Max. volume of each solvent added was 1 mL.
quantityName: solubility

Exam item: Would you kindly share the measured solubility for COc1ccc([C@@]23CCC(=O)C[C@@H]2N(C)CC3)cc1OC [(−) mesembrine] ?
Marked response: 125 to 250 mg/mL

----------
Test: Approximate solubility by visual observation at 25° C.
Type: physicochemical
Settings: organic solvent or mixture, thermodynamic from solid, Toluene
quantityName: solubility

Exam item: Would you kindly share the measured solubility for COc1ccc([C@@]23CCC(=O)C[C@@H]2N(C)CC3)cc1OC [(−) mesembrine] ?
Marked response: 7000 to 10000 µg/mL
